Measured values drawn from paper PMC10786891 for this set.

TESTED_ON: T1, EsCas13d, nuclease-dead (Eubacterium siraeum, UniProt B0MS50, R295A;H300A;R849A;H854A)
T1 sequence: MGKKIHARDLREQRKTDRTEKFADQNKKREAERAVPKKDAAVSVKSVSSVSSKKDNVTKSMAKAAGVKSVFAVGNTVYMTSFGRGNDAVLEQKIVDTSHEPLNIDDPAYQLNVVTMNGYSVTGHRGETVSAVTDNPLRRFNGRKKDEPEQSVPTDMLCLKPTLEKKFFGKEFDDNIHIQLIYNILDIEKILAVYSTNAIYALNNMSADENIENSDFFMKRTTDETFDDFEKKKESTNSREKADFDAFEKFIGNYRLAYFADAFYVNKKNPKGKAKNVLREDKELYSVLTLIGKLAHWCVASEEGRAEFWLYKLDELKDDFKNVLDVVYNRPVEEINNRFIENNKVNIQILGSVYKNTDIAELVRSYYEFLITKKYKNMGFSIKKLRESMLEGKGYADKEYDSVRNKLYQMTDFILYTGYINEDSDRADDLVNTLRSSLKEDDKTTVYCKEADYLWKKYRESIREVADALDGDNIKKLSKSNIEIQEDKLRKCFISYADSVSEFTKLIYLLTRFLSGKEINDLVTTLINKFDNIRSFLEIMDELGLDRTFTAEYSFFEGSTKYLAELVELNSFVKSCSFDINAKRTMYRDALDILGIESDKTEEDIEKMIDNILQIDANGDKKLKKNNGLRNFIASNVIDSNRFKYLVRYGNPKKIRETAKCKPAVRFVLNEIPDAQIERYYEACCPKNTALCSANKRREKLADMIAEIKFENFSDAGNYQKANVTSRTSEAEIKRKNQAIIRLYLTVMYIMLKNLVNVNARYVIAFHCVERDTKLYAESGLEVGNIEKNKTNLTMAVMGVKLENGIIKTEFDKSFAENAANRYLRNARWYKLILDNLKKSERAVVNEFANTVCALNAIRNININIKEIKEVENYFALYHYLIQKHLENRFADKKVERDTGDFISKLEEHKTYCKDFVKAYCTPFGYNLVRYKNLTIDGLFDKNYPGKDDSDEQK
ASSAY_PROCEDURE: crRNA (strand 1, pre-loaded); Mg2+; 40 mM Tris-HCl pH 7.5, 150 mM NaCl, 6 mM MgCl2, 1 mM DTT, 0.1% Tween-20, 0.2 mg/ml BSA; 25 C; 10 min per concentration, then washed
ASSAY_CONDITIONS: tags: His6-TwinStrep-SUMO cleaved; N-terminal SNAP kept (SNAP-Surface 488); label: 3' end held by stalled T7 RNA polymerase
MEASURED_PARAMETER: Kd (nM)

{"columns": ["BINDER", "MEASURED_PARAMETER", "TEST_RESULT"],
 "data": [
  ["target 1 MT 5'PFS UGG 3'PFS UUG (mixed) RNA 1: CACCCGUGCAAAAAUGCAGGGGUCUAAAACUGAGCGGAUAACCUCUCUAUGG RNA 2: GGGAAUGGAUCCACAUCUACGAAUUCUGGCCAUAGAGAGGUUAUCCGCUCAUUGAGAUCGGAAGAGCACACGU", "Kd", 85],
  ["target 3 G4U,U21A (mixed) RNA 1: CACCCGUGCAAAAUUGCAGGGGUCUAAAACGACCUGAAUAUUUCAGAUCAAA RNA 2: GGGAAUGGAUCCACAUCUACGAAUUCGUUUAUGAUCUGAAAUAUUCAUGUCUGCAGAUCGGAAGAGCACACGU", "Kd", 20.6],
  ["target 2 MT 5'PFS CUG 3'PFS AAG (mixed) RNA 1: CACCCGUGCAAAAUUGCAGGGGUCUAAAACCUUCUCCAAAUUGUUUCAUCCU RNA 2: GGGAAUGGAUCCACAUCUACGAAUUCCUGAGGAUGAAACAAUUUGGAGAAGAAGAGAUCGGAAGAGCACACGU", "Kd", 3],
  ["target 3 insU 3' of 16,insA 3' of 2 (mixed) RNA 1: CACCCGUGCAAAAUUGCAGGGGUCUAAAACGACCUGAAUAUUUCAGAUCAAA RNA 2: GGGAAUGGAUCCACAUCUACGAAUUCGUUUUUGAUCUUGAAAUAUUCAGGUACUGCAGAUCGGAAGAGCACACGU", "Kd", 16.1],
  ["target 1 insC 3' of 17,insA 3' of 3 (mixed) RNA 1: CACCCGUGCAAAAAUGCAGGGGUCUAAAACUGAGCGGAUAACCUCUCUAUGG RNA 2: GGGAAUGGAUCCACAUCUACGAAUUCGUACCAUAGCAGAGGUUAUCCGCUACACCGAGAUCGGAAGAGCACACGU", "Kd", 53],
  ["target 1 insA 3' of 7,insG 3' of 7 (mixed) RNA 1: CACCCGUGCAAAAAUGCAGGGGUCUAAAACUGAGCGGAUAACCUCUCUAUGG RNA 2: GGGAAUGGAUCCACAUCUACGAAUUCGUACCAUAGAGAGGUUAUCAGCGCUCACCGAGAUCGGAAGAGCACACGU", "Kd", 13],
  ["target 1 insG 3' of 19,insG 3' of 4 (mixed) RNA 1: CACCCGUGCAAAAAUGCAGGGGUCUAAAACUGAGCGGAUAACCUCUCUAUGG RNA 2: GGGAAUGGAUCCACAUCUACGAAUUCGUACCAUGAGAGAGGUUAUCCGCGUCACCGAGAUCGGAAGAGCACACGU", "Kd", 34.6],
  ["target 2 MT 5'PFS AUU 3'PFS CUA (mixed) RNA 1: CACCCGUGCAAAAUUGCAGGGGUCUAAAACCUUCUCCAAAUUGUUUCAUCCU RNA 2: GGGAAUGGAUCCACAUCUACGAAUUCAUUAGGAUGAAACAAUUUGGAGAAGCUAAGAUCGGAAGAGCACACGU", "Kd", 14]
]}
